Consider the following sequences and their measured target mRNA inhibition readings.
target-desc: DGAT2
study-conditions: ASO, HepG2, 10 µM
After the bases stand the sugars from the 5' end (letter, count) and the backbone: PS all phosphorothioate, else s phosphorothioate and o phosphodiester by linkage. Methylation of C is not given here. e = 2'-O-(2-methoxyethyl) (MOE); d = 2'-deoxy (DNA)
recorded-endpoint: target mRNA inhibition (%)

# sequence-input, target-desc, observed-measurement
measured = [
    ("GTAGACTCTCCATGAGCCTA (sugars e5 d10 e5, PS)", "DGAT2", 88),
    ("TGTGTGTCTTCACCAGCTGG (sugars e5 d10 e5, PS)", "DGAT2", 73),
    ("ATGCCCTTGCTGTAGGACCC (sugars e5 d10 e5, PS)", "DGAT2", 90),
    ("CCACTGTTGCTGAGCTCATG (sugars e5 d10 e5, PS)", "DGAT2", 88),
    ("GACAATGAGTAAGGGTATTC (sugars e5 d10 e5, PS)", "DGAT2", 83),
    ("TGCGCGATTCACTGAGGACC (sugars e5 d10 e5, PS)", "DGAT2", 87),
    ("TTTCCATTTTTTACCCAACC (sugars e5 d10 e5, PS)", "DGAT2", 90),
    ("TGACTGCATTCTTGCCAGGC (sugars e5 d10 e5, PS)", "DGAT2", 69),
    ("TGGCTTCCTCAGGGCCCACC (sugars e5 d10 e5, PS)", "DGAT2", 87),
    ("GCAGGTTCATCTGCCTT (sugars e3 d10 e4, PS)", "DGAT2", 82),
    ("TCACATGCCTGAGGGCAGCA (sugars e5 d10 e5, PS)", "DGAT2", 86),
]

Sourced from the OligoGym collection
